biological target: Human Bicep myofibrils; test: Myofibril ATPase, human bicep; conditions: human bicep, 50% Type I, 50% IIa, IIx
assayMetric: IC50 (µM)
The figure you give is taken to be in µM; do not add the unit.

Look up IC50 for this compound: `O=c1ccc(-c2cnc(OCC(F)(F)F)nc2)nn1Cc1cncc(F)c1` 1.2
